# ASSAY PROCEDURE: Rat B/P (brain disposition)
# Format: in vivo, male Sprague-Dawley rats
# DETAILS: male, Sprague-Dawley, brain/plasma, po, 10 mg/kg, oral gavage 10 mg/kg, time point 1.0 h, brain free fraction from rat brain slice model
PROPERTY NAME: Kp uu at 1 h
Reply with just the number.

Prompt: Using known records, supply Kp uu at 1 h for [2H]C([2H])([2H])c1c2c(nn1C1CCOCC1)OCCCn1nc(Cl)c3cnc(nc31)N2 [Example 13]
Response: 0.4

---

# ASSAY PROCEDURE: Rat B/P (brain disposition)
# Assay type: in vivo, male Sprague-Dawley rats
# DETAILS: male, Sprague-Dawley, plasma, oral gavage 1 mg/kg, time point 1.0 h, mean ± stdev, n = 3, read-out: Total plasma concentration
PROPERTY NAME: concentration at 1 h (ng/mL)
Answer in ng/mL, number only, no unit symbol.

Prompt: Using known records, supply concentration at 1 h for `[2H]C([2H])([2H])c1c2c(nn1C1CCOCC1)OCCCn1nc(Cl)c3cnc(nc31)N2`
Response: 74

---

# ASSAY PROCEDURE: Rat B/P (brain disposition)
# Type: in vivo, male Sprague-Dawley rats
# DETAILS: male, Sprague-Dawley, brain, oral gavage 10 mg/kg, time point 1.0 h, Table 8, read-out: Total brain concentration
PROPERTY NAME: concentration at 1 h (ng/mL)
Answer in ng/mL, number only, no unit symbol.

Prompt: Using known records, supply concentration at 1 h for `[2H]C([2H])([2H])c1c2c(nn1C1CCOCC1)OCCCn1nc(Cl)c3cnc(nc31)N2`
Response: 2030

---

# ASSAY PROCEDURE: Rat B/P (brain disposition)
# Format: in vivo, male Sprague-Dawley rats
# DETAILS: male, Sprague-Dawley, plasma, oral gavage 10 mg/kg, time point 0.5 h, mean ± stdev, n = 3, read-out: Total plasma concentration
Threshold-based label: concentration at 0.5 h under 400 ng/mL gives 1, concentration at 0.5 h not under 400 ng/mL gives -1.

Some entries whose results are on file:
Prompt: Hi there! Is concentration at 0.5 h for Cc1c2c(nn1[C@H]1CCOC(C)(C)C1)OCCCn1nc(Cl)c3cnc(nc31)N2 (single isomer, unassigned) [Example 42] below 400 ng/mL, do you know?
Response: 1

Prompt: Hi there! Is concentration at 0.5 h for Cc1c2c(nn1[C@@H]1C[C@H]3CC[C@@H](C1)O3)OCCCn1nc(Cl)c3cnc(nc31)N2 [Example 44] below 400 ng/mL, do you know?
Response: -1

Prompt: Hi there! Is concentration at 0.5 h for Cc1c2c(nn1[C@@H]1CCO[C@H](C)C1)OCCCn1nc(Cl)c3cnc(nc31)N2 (single isomer, unassigned) [Example 19] below 400 ng/mL, do you know?
Response: -1

Prompt: Hi there! Is concentration at 0.5 h for Cc1c2c(nn1[C@H]1C[C@@H](C)O[C@@H](C)C1)OCCCn1nc(Cl)c3cnc(nc31)N2 [Example 41] below 400 ng/mL, do you know?
Response: 1

---
Prompt: Hi there! Is concentration at 0.5 h for Cc1c2c(nn1[C@H]1[C@@H]3COC[C@@H]31)OCCCn1nc(Cl)c3cnc(nc31)N2 [Example 38] below 400 ng/mL, do you know?
Response: 1

---

# ASSAY PROCEDURE: Rat B/P (brain disposition)
# Format: in vivo, male Sprague-Dawley rats
# DETAILS: male, Sprague-Dawley, brain/plasma, po, 10 mg/kg, oral gavage 10 mg/kg, time point 1.0 h, fubrain from brain homogenate
PROPERTY NAME: Kp uu at 1 h
Reply with just the number.

Prompt: Using known records, supply Kp uu at 1 h for `Cc1c2c(nn1C1CCOCC1)OCCCn1nc(C(F)(F)F)c3cnc(nc31)N2`
Response: 0.29

Prompt: Using known records, supply Kp uu at 1 h for `Clc1nn2c3nc(ncc13)Nc1c(nn(C3CCOCC3)c1C1CC1)OCCC2`
Response: 0.38

---
Prompt: Using known records, supply Kp uu at 1 h for `Cc1c2c(nn1C1(C)COC1)OCCCn1nc(Cl)c3cnc(nc31)N2`
Response: 0.3

---

# ASSAY PROCEDURE: Rat B/P (brain disposition)
# Type: in vivo, male Sprague-Dawley rats
# DETAILS: male, Sprague-Dawley, brain/plasma, oral gavage 10 mg/kg, time point 1.0 h, fubrain from brain homogenate
PROPERTY NAME: Kp uu at 1 h
Reply with just the number.

# example entries with known answers
Prompt: Using known records, supply Kp uu at 1 h for Cc1c2c(nn1[C@@H]1CCOC[C@H]1F)OCCCn1nc(Cl)c3cnc(nc31)N2 (single isomer, unassigned)
Response: 0.5

Prompt: Using known records, supply Kp uu at 1 h for Cc1c2c(nn1[C@H]1CCCOC1)OCCCn1nc(Cl)c3cnc(nc31)N2 (single isomer, unassigned)
Response: 0.42

Prompt: Using known records, supply Kp uu at 1 h for `Cc1c2c(nn1C1CCOCC1)OCCCn1nc(C3CC3)c3cnc(nc31)N2`
Response: 0.28

---
Prompt: Using known records, supply Kp uu at 1 h for Cc1c2c(nn1[C@@H]1CCO[C@H](C)C1)OCCCn1nc(Cl)c3cnc(nc31)N2 (single isomer, unassigned)
Response: 0.35

---

Each entry below carries its recorded concentration at 1 h.
# ASSAY PROCEDURE: Rat B/P (brain disposition)
# Format: in vivo, male Sprague-Dawley rats
# DETAILS: male, Sprague-Dawley, plasma, oral gavage 10 mg/kg, time point 1.0 h, mean ± stdev, n = 3, read-out: Total plasma concentration
Answer in ng/mL, number only, no unit symbol.

Prompt: Using known records, supply concentration at 1 h for `Clc1nn2c3nc(ncc13)Nc1c(nn(C3CCOCC3)c1C1CC1)OCCC2`
Response: 314

---
Prompt: Using known records, supply concentration at 1 h for `[2H]C([2H])([2H])c1c2c(nn1C1CCOCC1)OCCCn1nc(Cl)c3cnc(nc31)N2`
Response: 1640

Prompt: Using known records, supply concentration at 1 h for `Cc1c2c(nn1C1CCOCC1)OCCCn1nc(Br)c3cnc(nc31)N2`
Response: 738

Prompt: Using known records, supply concentration at 1 h for `Cc1c2c(nn1C1(C)COC1)OCCCn1nc(Cl)c3cnc(nc31)N2`
Response: 280

---

Each entry below carries its recorded Kp at 0.5 h.
# ASSAY PROCEDURE: Rat B/P (brain disposition)
# Type: in vivo, male Sprague-Dawley rats
# DETAILS: male, Sprague-Dawley, brain/plasma, oral gavage 5 mg/kg, time point 0.5 h, mean ± stdev, n = 3
Reply with just the number.

Prompt: Using known records, supply Kp at 0.5 h for Cc1c2c(nn1[C@@H]1CC1(F)F)OCCCn1nc(Cl)c3cnc(nc31)N2 (single isomer, unassigned)
Response: 1.93

Prompt: Using known records, supply Kp at 0.5 h for Cc1c2c(nn1[C@H]1CCOC[C@]1(C)F)OCCCn1nc(Cl)c3cnc(nc31)N2 (single isomer, unassigned)
Response: 2.69

---

Each entry below carries its recorded pIC50.
# ASSAYED TARGET: LRRK2 G2019S (Homo sapiens, UniProt Q5S007, G2019S)
# Sequence (Q5S007 970-2527 G2019S): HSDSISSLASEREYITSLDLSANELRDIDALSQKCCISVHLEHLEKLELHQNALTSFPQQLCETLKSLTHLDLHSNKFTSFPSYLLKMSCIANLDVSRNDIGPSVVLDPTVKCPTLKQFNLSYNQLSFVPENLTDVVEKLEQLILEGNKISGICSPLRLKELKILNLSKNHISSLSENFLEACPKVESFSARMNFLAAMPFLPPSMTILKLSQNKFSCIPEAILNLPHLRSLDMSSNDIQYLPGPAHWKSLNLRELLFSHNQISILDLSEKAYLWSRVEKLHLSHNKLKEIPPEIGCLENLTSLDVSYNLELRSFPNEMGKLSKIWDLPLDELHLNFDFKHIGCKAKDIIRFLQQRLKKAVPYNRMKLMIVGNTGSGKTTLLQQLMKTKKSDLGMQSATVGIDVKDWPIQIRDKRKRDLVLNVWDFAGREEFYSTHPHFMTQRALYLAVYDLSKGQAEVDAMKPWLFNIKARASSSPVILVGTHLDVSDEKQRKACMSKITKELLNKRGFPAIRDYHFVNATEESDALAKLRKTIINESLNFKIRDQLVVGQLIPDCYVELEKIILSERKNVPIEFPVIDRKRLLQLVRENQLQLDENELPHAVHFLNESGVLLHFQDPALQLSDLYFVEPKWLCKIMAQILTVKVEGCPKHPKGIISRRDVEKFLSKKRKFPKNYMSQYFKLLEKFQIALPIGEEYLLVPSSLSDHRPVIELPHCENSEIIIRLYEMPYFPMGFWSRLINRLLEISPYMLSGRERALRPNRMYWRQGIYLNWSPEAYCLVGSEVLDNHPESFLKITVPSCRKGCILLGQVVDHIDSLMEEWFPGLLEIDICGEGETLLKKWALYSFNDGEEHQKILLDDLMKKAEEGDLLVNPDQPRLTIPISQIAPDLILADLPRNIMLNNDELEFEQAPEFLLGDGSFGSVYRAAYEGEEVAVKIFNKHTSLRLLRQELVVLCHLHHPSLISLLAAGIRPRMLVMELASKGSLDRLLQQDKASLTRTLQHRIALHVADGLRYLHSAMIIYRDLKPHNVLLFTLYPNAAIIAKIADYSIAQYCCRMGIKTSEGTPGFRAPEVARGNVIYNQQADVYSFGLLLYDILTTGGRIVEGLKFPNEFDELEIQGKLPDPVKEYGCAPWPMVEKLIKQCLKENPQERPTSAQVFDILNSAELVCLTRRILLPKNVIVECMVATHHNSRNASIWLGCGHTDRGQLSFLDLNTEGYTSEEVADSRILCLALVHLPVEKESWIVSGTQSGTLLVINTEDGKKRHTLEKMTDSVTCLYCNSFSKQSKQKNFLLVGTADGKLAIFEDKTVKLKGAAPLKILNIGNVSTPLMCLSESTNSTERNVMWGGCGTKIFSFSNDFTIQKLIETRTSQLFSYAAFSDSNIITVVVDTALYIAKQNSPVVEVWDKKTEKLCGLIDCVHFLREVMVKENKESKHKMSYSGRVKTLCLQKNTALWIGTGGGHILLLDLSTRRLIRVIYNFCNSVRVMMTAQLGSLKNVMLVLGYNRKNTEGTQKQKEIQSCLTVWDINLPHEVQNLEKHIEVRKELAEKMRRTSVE
# ASSAY PROCEDURE: LRRK2 G2019S kinase activity assay (LanthaScreen TR-FRET)
# DETAILS: 250 pM LRRK2 G2019S, 1.3 mM ATP, 3 h at 30° C.; n≥2 tests
Please treat pIC50 as minus the base-10 logarithm of the molar concentration.

# example entries with known answers
Prompt: State recorded pIC50 with LRRK2 G2019S (Homo sapiens, UniProt Q5S007, G2019S), entry [2H]C([2H])([2H])c1c2c(nn1[C@H]1CCCOCC1)OCCCn1nc(Cl)c3cnc(nc31)N2 (single isomer, unassigned) [Example 58] , no comment.
Response: 8.15

Prompt: State recorded pIC50 with LRRK2 G2019S (Homo sapiens, UniProt Q5S007, G2019S), entry `Cc1c2c(nn1C1CCOCC1)OCCCn1nc(C(F)(F)F)c3cnc(nc31)N2` , no comment.
Response: 8.13

Prompt: State recorded pIC50 with LRRK2 G2019S (Homo sapiens, UniProt Q5S007, G2019S), entry `Cc1c2c(nn1C1CC3(COC3)C1)OCCCn1nc(Cl)c3cnc(nc31)N2` , no comment.
Response: 8.24

Prompt: State recorded pIC50 with LRRK2 G2019S (Homo sapiens, UniProt Q5S007, G2019S), entry [2H]C([2H])([2H])c1c2c(nn1[C@H]1CCO[C@@H](C)C1)OCCCn1nc(Cl)c3cnc(nc31)N2 (single isomer, unassigned) [Example 51] , no comment.
Response: 8.28

Prompt: State recorded pIC50 with LRRK2 G2019S (Homo sapiens, UniProt Q5S007, G2019S), entry `[2H]C([2H])([2H])c1c2c(nn1C1CCOCC1)OC([2H])([2H])C([2H])([2H])C([2H])([2H])n1nc(Cl)c3cnc(nc31)N2` , no comment.
Response: 8.28

Prompt: State recorded pIC50 with LRRK2 G2019S (Homo sapiens, UniProt Q5S007, G2019S), entry `FC1(c2c3c(nn2C2CCOCC2)OCCCn2nc(Cl)c4cnc(nc42)N3)CC1` , no comment.
Response: 7.80

---
Prompt: State recorded pIC50 with LRRK2 G2019S (Homo sapiens, UniProt Q5S007, G2019S), entry `Cc1c2c(nn1C1CCOCC1)OCCCn1nc(C3CC3)c3cnc(nc31)N2` , no comment.
Response: 7.20
